testedTarget: T1, Human EphA2 (Ecto) (Human, UniProt P29317 24-537)
T1 construct: extracellular domain
T1 sequence (P29317 24-537): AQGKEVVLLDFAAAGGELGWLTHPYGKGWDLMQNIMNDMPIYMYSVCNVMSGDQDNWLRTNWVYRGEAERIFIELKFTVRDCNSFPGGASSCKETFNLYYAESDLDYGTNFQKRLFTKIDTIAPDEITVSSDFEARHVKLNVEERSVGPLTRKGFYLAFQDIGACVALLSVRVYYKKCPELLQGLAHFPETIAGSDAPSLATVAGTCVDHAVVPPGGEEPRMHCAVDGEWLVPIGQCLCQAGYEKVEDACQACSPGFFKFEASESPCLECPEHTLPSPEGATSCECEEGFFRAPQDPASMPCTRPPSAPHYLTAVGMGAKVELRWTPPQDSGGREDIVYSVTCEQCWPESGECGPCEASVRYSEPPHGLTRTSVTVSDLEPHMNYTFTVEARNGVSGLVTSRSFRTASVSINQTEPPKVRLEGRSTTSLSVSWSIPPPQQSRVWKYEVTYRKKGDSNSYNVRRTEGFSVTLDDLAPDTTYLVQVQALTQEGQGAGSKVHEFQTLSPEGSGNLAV
protocolSummary: FP competition; competitor Compound 18
Protocol: Peptides without a fluorescent tag were tested in competition with a peptide with a fluorescent tag and a known Kd (Table 2). Peptides were diluted to an appropriate concentration in assay buffer as described in the direct binding assay with a maximum of 5% DMSO, then serially diluted 1 in 2. […] Measurements were conducted as for the direct binding assay, however the gain was determined prior to the first measurement.
pKi: −log10 of the molar value. Numbered stars: 1 amine (or outer) side, 2 acyl side, 3 side chain; on linkers, the order of the positions; unused ones are H or OH. Bridge positions count the residues as written; N and C are the ends. Square brackets hold non-standard residues; d marks the D form. Ends that are not written are not given here. 1Nal = N[C@@H](Cc1cccc2ccccc12)C(=O)O; TBMB = c1c(C[*:1])cc(C[*:3])cc1C[*:2]
Label fulfilled when pKi is at or above 8; otherwise label not fulfilled.

Hi team, for ADVHCP[1Nal]GPFWCPVNRPGCA (linker 5-12-19 via TBMB) [Compound 150] , is the recorded pKi at or above 8? fulfilled
